- tested.system: Sigma intracellular receptor 2 (Rattus norvegicus, UniProt Q5U3Y7)
- Sequence (Q5U3Y7 whole entry): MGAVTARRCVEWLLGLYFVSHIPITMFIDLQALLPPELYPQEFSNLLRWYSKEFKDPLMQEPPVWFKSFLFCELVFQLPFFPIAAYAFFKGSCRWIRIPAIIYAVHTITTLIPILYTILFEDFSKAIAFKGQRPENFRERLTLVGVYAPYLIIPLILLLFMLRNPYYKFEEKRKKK
- experiment.notes: Displacement of [3H]DTG from sigma-2 receptor in Sprague-Dawley rat liver membrane incubated for 90 mins in presence of by liquid scintillation counter analysis (+)-pentazocine by liquid scintillation counter analysis
pKi: −log10 of the molar value.
endpoint.label: pKi

Solved cases below.
[
  {
    "molecule": "O[C@H]1CCC[C@@H]1N1CCN(CCCc2cccc(Br)c2)CC1 (relative stereo)",
    "pKi": 8.09
  },
  {
    "molecule": "O[C@H]1CCCC[C@@H]1N1CCN(CCc2cccc(Br)c2)CC1 (relative stereo)",
    "pKi": 7.60
  },
  {
    "molecule": "O[C@H]1CCCC[C@@H]1N1CCN(CCCc2ccccc2Br)CC1 (relative stereo)",
    "pKi": 7.49
  }
]

1 = O[C@H]1CCC[C@@H]1N1CCN(CCc2ccc(Br)cc2)CC1 (relative stereo)
2 = O[C@H]1CCC[C@@H]1N1CCN(CCc2cccc(I)c2)CC1 (relative stereo)
input: Larger number for pKi: 1 , or 2 ? Kindly state the label of the option you pick.
output: 2
(2: 7.13, 1: 6.83)

---

- tested.system: Sigma intracellular receptor 2 (Rattus norvegicus, UniProt Q5U3Y7)
- experiment.notes: Displacement of [3H]DTG from sigma-2 receptor in Sprague-Dawley rat liver membrane incubated for 90 mins in presence of by liquid scintillation counter analysis (+)-pentazocine by liquid scintillation counter analysis
pKi: −log10 of the molar value.
endpoint.label: pKi

A = O[C@H]1CCCC[C@@H]1N1CCN(CCc2ccccc2Br)CC1 (relative stereo)
B = O[C@H]1CCC[C@@H]1N1CCN(CCc2ccccc2Br)CC1 (relative stereo)
C = O[C@H]1CCC[C@@H]1N1CCN(CCCc2cccc(I)c2)CC1 (relative stereo)
D = O[C@H]1CCC[C@@H]1N1CCN(CCCc2ccccc2Br)CC1 (relative stereo)
input: List from greatest to least pKi. Your answer should be the labels, listed in the requested order.
output: C, A, D, B
(C: 7.77, A: 7.38, D: 6.94, B: 6.43)
